test system: HOP-62 NSCLC; assay: NCI-60 one-dose screen, 48 h (100 = growth as untreated, 0 = no growth, -100 = all killed); details: 10 µM unless noted
Compounds without any hit were thinned out: in the full panel of roughly 83,000, 20% have a hit.
OBSERVABLE: growth (%)
Numbers only, in %.

// input: 5 molecules below; output: growth for each
1. C[C@]12CC[C@H]3[C@@H](CC[C@]4(O)C[C@@H](O[C@@H]5O[C@H](CO)[C@@H](O[C@@H]6OC[C@@H](O)[C@H](O)[C@H]6O)[C@H](O)[C@H]5O)CC[C@]34C=O)[C@@]1(O)CC[C@@H]2C1=CC(=O)OC1
2. ClCCN(CCCl)c1ccc(OCc2ccccc2)cc1
3. COc1ccc(O)c(CNC(=O)CN2CCCC2=O)c1
4. CC1=C(CCCOC(=O)CN)C2=C(C)C3(CC3)[C@@](C)(O)C(=O)C2=C1
5. Oc1ccc2c3c1OC1[C@@H](O)CC[C@@]4(O)[C@@H](C2)N(CC2CCC2)CC[C@]314 (some centres undefined)

A)
1: -68.4; 2: 54.8; 3: 97.1; 4: 71.5; 5: 107

---

system: SK-OV-3 ovarian; experiment: NCI-60 one-dose screen, 48 h (100 = growth as untreated, 0 = no growth, -100 = all killed); settings: 10 µM unless noted
This is part of a sample that, as a whole, favours compounds with a hit. Of some 83,000 tested, about 20% had one in any assay.
I'd appreciate it if you could supply growth values for the items below.
Answers are plain numbers, in %.

Please review the entries below; each comes with its answer.
- OCCCCCNC1CCCCC1: 102
- CC(=O)OC1CCC2C3CCC4=C/C(=N/OC(=O)c5ccc(N(CCCl)CCCl)cc5)CCC4(C)C3CC(C)C12 (centres undefined): 114
- COC(=O)[C@@H](C)C[C@H](Cc1ccccc1)NC(=O)c1csc([C@@H](C[C@H](C(C)C)N(C)C(=O)C2(NC(=O)[C@H]3CCCCN3C)CC2)OC(C)=O)n1: 19.1
- CCOC(=S)S[C@H]1C[C@@H]2[C@H](CC[C@]3(C)C(=O)CC[C@@H]23)[C@@]2(C)CCC(=O)C=C12: 108
- ClCCN(CCCl)Cc1ccc(Nc2ccnc3cc(Cl)ccc23)cc1: 53.5

// input: 4 molecules below; output: growth for each
1. CCC1CC(O)c2c(O)c3c(c(O)c2C1O)C(=O)c1cccc(O)c1C3=O (centres undefined) (tested in a mixture with another compound)
2. N/C(=N/N=C/c1ccncc1)N[N+](=O)[O-]
3. CCN(CC)CCOC(=O)C(OC(C)C)(c1ccccc1)c1ccccc1
4. CSc1nc(Cl)cc(N2CC2)n1

A)
[11.1, 111, 94.4, 115]

---

test system: A549/ATCC NSCLC; experiment: NCI-60 one-dose screen, 48 h; settings: 10 µM unless noted
The panel holds about 83,000 compounds, 20% with a hit somewhere; the sample as a whole holds those more often. The source made the active and inactive calls. The calls were made as follows: active = growth percent below 10; inactive = the rest.
Choose the fitting class; nothing outside active, inactive is accepted.

• COC[C@@H]1C[C@@]2(C)[C@@H](CC[C@@H]3[C@@H]2CC[C@@]2(C)[C@H]3CC[C@]2(C)O)CC1=O = inactive

Q) Hey, what did the test say about O=C(O)c1c(Cl)n(Cc2ccc(O)cc2)c2ccc(O)cc12 ?
A) inactive

Q) Here is the next compound: Nc1c(F)cc(-c2nc3cc(F)ccc3[se]2)cc1Br
A) inactive

Q) Here is the next compound: O=C1C(N2CC2)=C(N2CC2)C(=O)C(N2CC2)=C1N1CC1
A) active

Q) Here is the next compound: C[C@@H]1CCC2[C@@H](C)[C@H](OC(=O)CCC(=O)NCCNC(=O)Cc3cc(=O)oc4cc(N(C)C)ccc34)O[C@@H]3O[C@]4(C)CC[C@@H]1C23OO4 (stereo partly specified)
A) inactive

Q) Here is the next compound: O=Cc1cn(Cc2ccc(Cl)cc2)c2ccccc12
A) inactive

Q) Here is the next compound: Nc1ccc(-c2nc3cc(F)ccc3[se]2)cc1F
A) inactive

Q) Here is the next compound: CCOC(=O)[C@@H](C)C[C@H](Cc1ccccc1)NC(=O)c1csc([C@@H](C[C@H](C(C)C)N(C)C(=O)[C@H](CCC(C)C)NC(=O)[C@H]2CCCCN2C)OC(C)=O)n1
A) active
